- protocol summary: Drug-drug interaction study: plasma pharmacokinetics of single oral famitinib 25 mg alone and with steady-state rifampin 600 mg once daily (LC-MS/MS, noncompartmental analysis)
- test conditions: male, human, plasma, po, 25 mg, λz, famitinib 25 mg + rifampin, N = 20; geometric mean (geometric CV, %)
measurement kind: k el (s⁻¹)
// units = s⁻¹; emit number, no label

Recorded k el for CCN(CC)CCN1CCc2[nH]c(/C=C3\C(=O)Nc4ccc(F)cc43)c(C)c2C1=O [famitinib, Famitinib malate] , please?
1.08e-05

----------
- protocol summary: Drug-drug interaction study: plasma pharmacokinetics of single oral famitinib 25 mg alone and with steady-state rifampin 600 mg once daily (LC-MS/MS, noncompartmental analysis)
- test conditions: male, human, plasma, po, 25 mg
measurement kind: half-life (h)
// units = h; emit number, no label

Recorded half-life for CCN(CC)CCN1CCc2[nH]c(/C=C3\C(=O)Nc4ccc(F)cc43)c(C)c2C1=O [famitinib, Famitinib malate] , please?
33.9

----------
- protocol summary: Drug-drug interaction study: plasma pharmacokinetics of single oral famitinib 25 mg alone and with steady-state rifampin 600 mg once daily (LC-MS/MS, noncompartmental analysis)
- test conditions: male, human, plasma, po, 25 mg, AUC0–t, famitinib 25 mg alone, N = 21; geometric mean (geometric CV, %)
measurement kind: AUC(0-t)
Answer by giving the amount and then stating its unit.

Recorded AUC(0-t) for CCN(CC)CCN1CCc2[nH]c(/C=C3\C(=O)Nc4ccc(F)cc43)c(C)c2C1=O [famitinib, Famitinib malate] , please?
1300 ng·h/mL

----------
- protocol summary: Drug-drug interaction study: plasma pharmacokinetics of single oral famitinib 25 mg alone and with steady-state rifampin 600 mg once daily (LC-MS/MS, noncompartmental analysis)
- test conditions: human, plasma, oral, Plasma concentration of famitinib, 144h, famitinib + rifampin period; individual subjects; LLOQ 0.050
measurement kind: concentration at 144 h (ng/mL)
// units = ng/mL; emit number, no label

Recorded concentration at 144 h for CCN(CC)CCN1CCc2[nH]c(/C=C3\C(=O)Nc4ccc(F)cc43)c(C)c2C1=O [famitinib, Famitinib malate] , please?
0.063

----------
- protocol summary: Drug-drug interaction study: plasma pharmacokinetics of single oral famitinib 25 mg alone and with steady-state rifampin 600 mg once daily (LC-MS/MS, noncompartmental analysis)
- test conditions: male, human, plasma, po, 25 mg, λz, famitinib 25 mg alone, N = 21; geometric mean (geometric CV, %)
measurement kind: k el (s⁻¹)
// units = s⁻¹; emit number, no label

Recorded k el for CCN(CC)CCN1CCc2[nH]c(/C=C3\C(=O)Nc4ccc(F)cc43)c(C)c2C1=O [famitinib, Famitinib malate] , please?
5.83e-06

----------
- protocol summary: Drug-drug interaction study: plasma pharmacokinetics of single oral famitinib 25 mg alone and with steady-state rifampin 600 mg once daily (LC-MS/MS, noncompartmental analysis)
- test conditions: male, human, plasma, po, 25 mg, AUC0–t, famitinib 25 mg + rifampin, N = 20; geometric mean (geometric CV, %)
measurement kind: AUC(0-t) (ng·h/mL)
// units = ng·h/mL; emit number, no label

Recorded AUC(0-t) for CCN(CC)CCN1CCc2[nH]c(/C=C3\C(=O)Nc4ccc(F)cc43)c(C)c2C1=O [famitinib, Famitinib malate] , please?
405

----------
- protocol summary: Drug-drug interaction study: plasma pharmacokinetics of single oral famitinib 25 mg alone and with steady-state rifampin 600 mg once daily (LC-MS/MS, noncompartmental analysis)
- test conditions: male, human, plasma, po, 25 mg, Cmax, famitinib 25 mg single oral dose alone, N = 21; geometric mean (geometric CV, %)
measurement kind: Cmax (ng/mL)
// units = ng/mL; emit number, no label

Recorded Cmax for CCN(CC)CCN1CCc2[nH]c(/C=C3\C(=O)Nc4ccc(F)cc43)c(C)c2C1=O [famitinib, Famitinib malate] , please?
38.7

----------
- protocol summary: Drug-drug interaction study: plasma pharmacokinetics of single oral famitinib 25 mg alone and with steady-state rifampin 600 mg once daily (LC-MS/MS, noncompartmental analysis)
- test conditions: male, human, plasma, po, 25 mg, Tmax, famitinib 25 mg alone, N = 21; median (min, max)
measurement kind: Tmax (h)
// units = h; emit number, no label

Recorded Tmax for CCN(CC)CCN1CCc2[nH]c(/C=C3\C(=O)Nc4ccc(F)cc43)c(C)c2C1=O [famitinib, Famitinib malate] , please?
6

----------
- protocol summary: Drug-drug interaction study: plasma pharmacokinetics of single oral famitinib 25 mg alone and with steady-state rifampin 600 mg once daily (LC-MS/MS, noncompartmental analysis)
- test conditions: human, plasma, oral, 25 mg, Plasma concentration of famitinib, 24h, famitinib alone period; individual subjects
measurement kind: concentration at 24 h

Recorded concentration at 24 h for CCN(CC)CCN1CCc2[nH]c(/C=C3\C(=O)Nc4ccc(F)cc43)c(C)c2C1=O [famitinib, Famitinib malate] , please?
14 ng/mL

----------
- protocol summary: Drug-drug interaction study: plasma pharmacokinetics of single oral famitinib 25 mg alone and with steady-state rifampin 600 mg once daily (LC-MS/MS, noncompartmental analysis)
- test conditions: human, plasma, oral, 25 mg, Plasma concentration of famitinib, 6h, famitinib alone period; individual subjects
measurement kind: concentration at 6 h (ng/mL)
// units = ng/mL; emit number, no label

Recorded concentration at 6 h for CCN(CC)CCN1CCc2[nH]c(/C=C3\C(=O)Nc4ccc(F)cc43)c(C)c2C1=O [famitinib, Famitinib malate] , please?
44.3

----------
- protocol summary: Drug-drug interaction study: plasma pharmacokinetics of single oral famitinib 25 mg alone and with steady-state rifampin 600 mg once daily (LC-MS/MS, noncompartmental analysis)
- test conditions: male, human, plasma, po, 25 mg, Tmax, famitinib 25 mg + rifampin, N = 20; median (min, max)
measurement kind: Tmax (h)
// units = h; emit number, no label

Recorded Tmax for CCN(CC)CCN1CCc2[nH]c(/C=C3\C(=O)Nc4ccc(F)cc43)c(C)c2C1=O [famitinib, Famitinib malate] , please?
5.5

----------
- protocol summary: Drug-drug interaction study: plasma pharmacokinetics of single oral famitinib 25 mg alone and with steady-state rifampin 600 mg once daily (LC-MS/MS, noncompartmental analysis)
- test conditions: human, plasma, oral, 25 mg, Plasma concentration of famitinib, 48h, famitinib alone period; individual subjects
measurement kind: concentration at 48 h (ng/mL)
// units = ng/mL; emit number, no label

Recorded concentration at 48 h for CCN(CC)CCN1CCc2[nH]c(/C=C3\C(=O)Nc4ccc(F)cc43)c(C)c2C1=O [famitinib, Famitinib malate] , please?
7.26
